- Tested on: caudate lesioned mouse
- RUN_DESCRIPTION: caudate lesioned mouse test (anti-parkinson activity)
- Assay type: in vivo
- MEASUREMENT_CONTEXT: Mus musculus; dose 0.416 m. mole/kg; total; read-out: No. Mice Affected/No. Mice Tested, Total (converted)
Below, each entry is listed alongside its reported responders at 416 µmol/kg.
ENDPOINT_NAME: responders at 416 µmol/kg (%)

MOLECULE	ENDPOINT_NAME	VALUE_REPORTED
CCCCC(=O)Oc1ccc2c(c1OC(=O)CCCC)-c1cccc3c1C(C2)N(C)CC3 (centres unmarked) [Ref. 2A, reference compound]	responders at 416 µmol/kg	33.3
CN1CCc2cccc3c2C1Cc1ccc(OC(=O)c2ccc(Cl)cc2)c(OC(=O)c2ccc(Cl)cc2)c1-3 (centres unmarked) [Ref. 1F, reference compound]	responders at 416 µmol/kg	0
CCCCCCCCCCCCCCCC(=O)Oc1ccc2c(c1OC(=O)CCCCCCCCCCCCCCC)-c1cccc3c1C(C2)N(C)CC3 (centres unmarked) [Ref. 1D, reference compound]	responders at 416 µmol/kg	0
CN1CCc2cccc3c2C1Cc1ccc(OC(=O)C(C)(C)C)c(OC(=O)C(C)(C)C)c1-3 (centres unmarked) [Ref. 1C, reference compound]	responders at 416 µmol/kg	66.7
CN1CCc2cccc3c2C1Cc1ccc(OC(=O)c2ccccc2)c(OC(=O)c2ccccc2)c1-3 (centres unmarked) [Ref. 1E, reference compound]	responders at 416 µmol/kg	0

* * *

- Tested on: caudate lesioned mouse
- RUN_DESCRIPTION: caudate lesioned mouse test (anti-parkinson activity)
- Type: in vivo
- MEASUREMENT_CONTEXT: Mus musculus; dose 0.132 m. mole/kg; 6 h post-drug; read-out: No. Mice Affected/No. Mice Tested, 6 h (converted)
Counter-ions that a name gives are not always drawn.
Collected responders at 132 µmol/kg values appear next to each entry.
ENDPOINT_NAME: responders at 132 µmol/kg (%)

COMPOUND	MEASUREMENT_UNIT	VALUE_REPORTED
CCCCC(=O)Oc1ccc2c(c1OC(=O)CCCC)-c1cccc3c1C(C2)N(CCC)CC3 (centres unmarked) [Ex. 2A, hydrochloride]	%	75
CCCN1CCc2cccc3c2C1Cc1ccc(OC(=O)C2CC2)c(OC(=O)C2CC2)c1-3 (centres unmarked)	%	100
CCCN1CCc2cccc3c2C1Cc1ccc(OC(=O)c2ccc(Cl)cc2)c(OC(=O)c2ccc(Cl)cc2)c1-3 (centres unmarked)	%	25
CCCC(=O)Oc1ccc2c(c1OC(=O)CCC)-c1cccc3c1C(C2)N(CCC)CC3 (centres unmarked) [Ex. 1A, N-Propylnorapomorphine dibutanoate]	%	100
CCCCCCCCCCCCCCCC(=O)Oc1ccc2c(c1OC(=O)CCCCCCCCCCCCCCC)-c1cccc3c1C(C2)N(CCC)CC3 (centres unmarked) [Ex. ID, N-Propylnorapomorphine dihexadecanoate]	%	0

* * *

Collected responders at 26 µmol/kg values appear next to each entry.
- Tested on: caudate lesioned mouse
- RUN_DESCRIPTION: caudate lesioned mouse test (anti-parkinson activity)
- Type: in vivo
- MEASUREMENT_CONTEXT: Mus musculus; dose 0.026 m. mole/kg; total; read-out: No. Mice Affected/No. Mice Tested, Total (converted)
Counter-ions that a name gives are not always drawn.

COMPOUND	responders at 26 µmol/kg (%)
CCCN1CCc2cccc3c2C1Cc1ccc(OC(=O)c2ccc(C)cc2)c(OC(=O)c2ccc(C)cc2)c1-3 (stereo not drawn)	0
CCCCC(=O)Oc1ccc2c(c1OC(=O)CCCC)-c1cccc3c1C(C2)N(CCC)CC3 (stereo not drawn) [Ex. 2A, hydrochloride]	0
CCCN1CCc2cccc3c2C1Cc1ccc(OC(=O)C(C)C)c(OC(=O)C(C)C)c1-3 (stereo not drawn) [Ex. 1B, N-Propylnorapomorphine diisobutyrate]	50

* * *

- Tested on: caudate lesioned mouse
- RUN_DESCRIPTION: caudate lesioned mouse test (anti-parkinson activity)
- Type: in vivo
- MEASUREMENT_CONTEXT: Mus musculus; dose 0.208 m. mole/kg; 4 h post-drug; read-out: No. Mice Affected/No. Mice Tested, 4 h (converted)

COMPOUND	SYSTEM_TESTED	responders at 208 µmol/kg
CCCCCCCCCCCCCCCC(=O)Oc1ccc2c(c1OC(=O)CCCCCCCCCCCCCCC)-c1cccc3c1C(C2)N(C)CC3 (stereo not shown) [Ref. 1D, reference compound]	caudate lesioned mouse	0%
CCCN1CCc2cccc3c2C1Cc1ccc(OC(=O)c2ccc(Cl)cc2)c(OC(=O)c2ccc(Cl)cc2)c1-3 (stereo not shown)	caudate lesioned mouse	66.7%
CN1CCc2cccc3c2C1Cc1ccc(OC(=O)C(C)(C)C)c(OC(=O)C(C)(C)C)c1-3 (stereo not shown) [Ref. 1C, reference compound]	caudate lesioned mouse	0%
CCCCC(=O)Oc1ccc2c(c1OC(=O)CCCC)-c1cccc3c1C(C2)N(C)CC3 (stereo not shown) [Ref. 2A, reference compound]	caudate lesioned mouse	0%

* * *

- System: caudate lesioned mouse
- RUN_DESCRIPTION: caudate lesioned mouse test (anti-parkinson activity)
- Format: in vivo
- MEASUREMENT_CONTEXT: Mus musculus; dose 0.026 m. mole/kg; 4 h post-drug; read-out: No. Mice Affected/No. Mice Tested, 4 h (converted)

COMPOUND	SYSTEM_TESTED	responders at 26 µmol/kg / %
CCCN1CCc2cccc3c2C1Cc1ccc(OC(=O)c2ccc(C)cc2)c(OC(=O)c2ccc(C)cc2)c1-3 (stereo not shown) [Ex. 1H]	caudate lesioned mouse	0
CCCN1CCc2cccc3c2C1Cc1ccc(OC(=O)C(C)C)c(OC(=O)C(C)C)c1-3 (stereo not shown) [Ex. 1B, N-Propylnorapomorphine diisobutyrate]	caudate lesioned mouse	50
CCCN1CCc2cccc3c2C1Cc1ccc(OC(=O)c2ccc(OC)cc2)c(OC(=O)c2ccc(OC)cc2)c1-3 (stereo not shown) [Ex. 1J]	caudate lesioned mouse	50
CCCN1CCc2cccc3c2C1Cc1ccc(OC(=O)C2CC2)c(OC(=O)C2CC2)c1-3 (stereo not shown) [Ex. 1M]	caudate lesioned mouse	75

* * *

- Tested on: caudate lesioned mouse
- RUN_DESCRIPTION: caudate lesioned mouse test (anti-parkinson activity)
- Assay type: in vivo
- MEASUREMENT_CONTEXT: Mus musculus, 0.5 h; dose 0.132 m. mole/kg; 1/2 h post-drug; read-out: No. Mice Affected/No. Mice Tested, 1/2 h (converted)
- Method: An index of anti-parkinson activity was determined using the caudate lesioned mouse test described by Lotti, Life Sci., 10, 781-789 (1971). The mice having unilateral lesions of the caudate nucleus prepared according to the method of Lotti supra were observed immediately after the surgical procedure for strong postural asymmetries directed to the same side as the lesion. When this asymmetry was not observed, the mice were discarded. […]
Counter-ions that a name gives are not always drawn.

COMPOUND	responders at 132 µmol/kg / %
CCCN1CCc2cccc3c2C1Cc1ccc(OC(=O)c2ccc(Cl)cc2)c(OC(=O)c2ccc(Cl)cc2)c1-3 (centres unmarked) [Ex. 1F]	0
CCCC(=O)Oc1ccc2c(c1OC(=O)CCC)-c1cccc3c1C(C2)N(CCC)CC3 (centres unmarked) [Ex. 1A, N-Propylnorapomorphine dibutanoate]	50
CCCCC(=O)Oc1ccc2c(c1OC(=O)CCCC)-c1cccc3c1C(C2)N(CCC)CC3 (centres unmarked) [Ex. 2A, hydrochloride]	50
CCCCCCCCCCCCCCCC(=O)Oc1ccc2c(c1OC(=O)CCCCCCCCCCCCCCC)-c1cccc3c1C(C2)N(CCC)CC3 (centres unmarked) [Ex. ID, N-Propylnorapomorphine dihexadecanoate]	0
CCCN1CCc2cccc3c2C1Cc1ccc(OC(=O)C2CC2)c(OC(=O)C2CC2)c1-3 (centres unmarked) [Ex. 1M]	100

* * *

- Test system: caudate lesioned mouse
- RUN_DESCRIPTION: caudate lesioned mouse test (anti-parkinson activity)
- Type: in vivo
- MEASUREMENT_CONTEXT: Mus musculus; dose 0.026 m. mole/kg; total; read-out: No. Mice Affected/No. Mice Tested, Total (converted)
Where a name gives a salt, the structure may show the parent alone.
Measured responders at 26 µmol/kg, listed per entry.

COMPOUND	responders at 26 µmol/kg, %
CCCN1CCc2cccc3c2C1Cc1ccc(OC(=O)c2cc(OC)c(OC)c(OC)c2)c(OC(=O)c2cc(OC)c(OC)c(OC)c2)c1-3 (stereo not drawn) [Ex. 1L, hydrochloride]	100
CCCN1CCc2cccc3c2C1Cc1ccc(OC(=O)c2ccccc2C)c(OC(=O)c2ccccc2C)c1-3 (stereo not drawn)	50
CCCN1CCc2cccc3c2C1Cc1ccc(OC(=O)c2cc(OC)cc(OC)c2)c(OC(=O)c2cc(OC)cc(OC)c2)c1-3 (stereo not drawn) [Ex. 1K, hydrochloride]	100

* * *

Measured responders at 416 µmol/kg, listed per entry.
- Tested on: caudate lesioned mouse
- RUN_DESCRIPTION: caudate lesioned mouse test (anti-parkinson activity)
- Assay type: in vivo
- MEASUREMENT_CONTEXT: Mus musculus; dose 0.416 m. mole/kg; 6 h post-drug; read-out: No. Mice Affected/No. Mice Tested, 6 h (converted)

COMPOUND	responders at 416 µmol/kg
CCCCCCCCCCCCCCCC(=O)Oc1ccc2c(c1OC(=O)CCCCCCCCCCCCCCC)-c1cccc3c1C(C2)N(C)CC3 (centres unmarked) [Ref. 1D, reference compound]	0%
CCCCC(=O)Oc1ccc2c(c1OC(=O)CCCC)-c1cccc3c1C(C2)N(C)CC3 (centres unmarked) [Ref. 2A, reference compound]	0%
CN1CCc2cccc3c2C1Cc1ccc(OC(=O)C(C)(C)C)c(OC(=O)C(C)(C)C)c1-3 (centres unmarked) [Ref. 1C, reference compound]	66.7%
CN1CCc2cccc3c2C1Cc1ccc(OC(=O)c2ccccc2)c(OC(=O)c2ccccc2)c1-3 (centres unmarked) [Ref. 1E, reference compound]	0%
CN1CCc2cccc3c2C1Cc1ccc(OC(=O)c2ccc(Cl)cc2)c(OC(=O)c2ccc(Cl)cc2)c1-3 (centres unmarked) [Ref. 1F, reference compound]	0%
